These entries and their values trace back to the supplement of paper PMC6089552.

Tested on: A673/TR/shEF
Assay: cell viability (LOESS-normalised, relative to median of negative controls) (log2 ratio); higher = more viable cells (less compound effect), active = hit call of the paper (over 3 MAD below the median)
Conditions: 25 µM; library screen: screen2; EWS-FLI1 expression: high (no doxycycline); treatment time: 72 h
Out of some 3,200 compounds screened, about 300 (9.4%) showed activity. For the sample, actives were picked, then their nearest neighbours and some compounds at random.
Outcome codes: active, inactive

>>> group("C[n+]1cc2c3c(ccc2c2ccc4cc5c(cc4c21)OCO5)OCO3")
"active"
>>> group("Nc1nc(=S)c2[nH]cnc2[nH]1")
"active"
>>> group("COC(=O)Nc1nc2ccc(C(=O)c3ccccc3)cc2[nH]1")
"active"
>>> group("COc1ccc2cc3[n+](cc2c1OC)CCc1cc2c(cc1-3)OCO2")
"active"
>>> group("COc1c(C)c2c(c(O)c1C/C=C(\\C)CCC(=O)O)C(=O)OC2")
"active"
>>> group("C[n+]1c2cc(N)ccc2cc2ccc(N)cc21")
"active"
>>> group("S=c1nc[nH]c2nc[nH]c12")
"active"
>>> group("O=c1[nH]cc(F)c(=O)[nH]1")
"active"
>>> group("C=C1C(=O)O[C@@H]2C[C@@]3(C)CCC[C@H](C)C3=C[C@H]12")
"inactive"
>>> group("O=c1[nH]c(=O)n([C@H]2C[C@H](O)[C@@H](CO)O2)cc1F")
"active"
>>> group("COC(=O)Nc1nc2ccc(Sc3ccccc3)cc2[nH]1")
"active"
